Numbers sourced from patent US20240059799A1.

As shown below, each of these binders has a reported IC50 value.
# targetDesc: T1, recombinant human TL1A (human, UniProt O95150 71-251)
# T1 construct: Homotrimeric cytokine; biotinylated with Sulfo-NHS-biotin where captured for SPR, coated unlabelled in ELISA, soluble in bioassays; also called TNFSF15
# T1 chain: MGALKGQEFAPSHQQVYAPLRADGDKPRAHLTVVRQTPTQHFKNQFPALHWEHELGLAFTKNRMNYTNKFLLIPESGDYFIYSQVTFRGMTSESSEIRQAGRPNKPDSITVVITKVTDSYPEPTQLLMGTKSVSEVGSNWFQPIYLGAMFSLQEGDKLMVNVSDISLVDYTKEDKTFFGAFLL
# procedureDetails: competition ELISA, coated TL1A, competitor bio-TL1A-0002
Kindly provide the numeric value in nM only, without the unit symbol.

Example entries begin here.
The binder listed as TL1A-0275 (antibody, human IgG1, kappa, V domains shown, human IgG1 effector-function-minimized/kappa) VH: QVQLVQSGAEVKKPGASVKVSCKASGYDFSYYGISWVRQAPGQGLEWMGWISTYNTGTHYAPSLQGRVTMTTDTSTSTAYMELRSLRSDDTAVYYCARESYYGSGAHRGGMDVWGQGTTVTVSS VL: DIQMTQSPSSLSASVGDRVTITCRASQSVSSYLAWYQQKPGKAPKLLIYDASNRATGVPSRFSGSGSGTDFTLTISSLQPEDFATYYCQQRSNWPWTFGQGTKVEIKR shows IC50 equal to 9

The binder listed as TL1A-0262 (antibody, human IgG1, kappa, V domains shown, human IgG1 effector-function-minimized/kappa) VH: QVQLVQSGAEVKKPGASVKVSCKASGYDYTYYGISWVRQAPGQGLEWMGWISTYNTGTHYAQKLQGRVTMTTDTSTSTAYMELRSLRSDDTAVYYCARESYYGSGAFRGGMDVWGQGTTVTVSS VL: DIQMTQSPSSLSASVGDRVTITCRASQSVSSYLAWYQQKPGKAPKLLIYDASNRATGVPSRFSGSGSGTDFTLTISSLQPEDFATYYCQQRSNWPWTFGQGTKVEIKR shows IC50 equal to 7.3

The binder listed as TL1A-0278 (antibody, human IgG1, kappa, V domains shown, human IgG1 effector-function-minimized/kappa) VH: QVQLVQSGAEVKKPGASVKVSCKASGYDFSYYGISWVRQAPGQGLEWMGWISTYNTVTHYAPSLQGRVTMTTDTSTSTAYMELRSLRSDDTAVYYCARESYYGSGAFRGGMDVWGQGTTVTVSS VL: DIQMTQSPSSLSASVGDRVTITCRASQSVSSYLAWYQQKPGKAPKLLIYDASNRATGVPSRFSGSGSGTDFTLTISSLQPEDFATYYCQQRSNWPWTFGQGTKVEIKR shows IC50 equal to 9.1

The binder listed as TL1A-0289 (antibody, human IgG1, kappa, V domains shown, human IgG1 effector-function-minimized/kappa) VH: QVQLVQSGAEVKKPGASVKVSCKASGYDFTYYGVSWVRQAPGQGLEWMGWISTYNTGTHYAPSLQGRVTMTTDTSTSTAYMELRSLRSDDTAVYYCARESYYGSGAHRGGMDVWGQGTTVTVSS VL: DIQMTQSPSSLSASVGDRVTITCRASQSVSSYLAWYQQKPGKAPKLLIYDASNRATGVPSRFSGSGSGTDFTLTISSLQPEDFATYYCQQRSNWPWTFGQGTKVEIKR shows IC50 equal to 7.9

The binder listed as TL1A-0303 (antibody, human IgG1, kappa, V domains shown, human IgG1 effector-function-minimized/kappa) VH: QVQLVQSGAEVKKPGASVKVSCKASGYDFTYYGIGWVRQAPGQGLEWMGWISTYNTGTHYAPSLQGRVTMTTDTSTSTAYMELRSLRSDDTAVYYCARESYYGSGAHRGGMDVWGQGTTVTVSS VL: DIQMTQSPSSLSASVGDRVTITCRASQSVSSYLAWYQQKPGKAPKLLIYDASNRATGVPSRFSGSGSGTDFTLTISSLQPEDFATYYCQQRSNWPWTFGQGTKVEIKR shows IC50 equal to 15

The binder listed as TL1A-0261 (antibody, human IgG1, kappa, V domains shown, human IgG1 effector-function-minimized/kappa) VH: QVQLVQSGAEVKKPGASVKVSCKASGYDYTYYGISWVRQAPGQGLEWMGWISTYNTGTHYAPSLQGRVTMTTDTSTSTAYMELRSLRSDDTAVYYCARESYYGSGAHRGGMDVWGQGTTVTVSS VL: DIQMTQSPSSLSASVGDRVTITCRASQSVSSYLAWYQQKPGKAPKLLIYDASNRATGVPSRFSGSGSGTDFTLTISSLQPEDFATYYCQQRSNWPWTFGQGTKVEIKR shows IC50 equal to 5.6

The binder listed as TL1A-0260 (antibody, human IgG1, kappa, V domains shown, human IgG1 effector-function-minimized/kappa; also called bio-TL1A-0260 (biotinylated reporter)) VH: QVQLVQSGAEVKKPGASVKVSCKASGYDYTYYGISWVRQAPGQGLEWMGWISTYNTGTHYAPSLQGRVTMTTDTSTSTAYMELRSLRSDDTAVYYCARESYYGSGAFRGGMDVWGQGTTVTVSS VL: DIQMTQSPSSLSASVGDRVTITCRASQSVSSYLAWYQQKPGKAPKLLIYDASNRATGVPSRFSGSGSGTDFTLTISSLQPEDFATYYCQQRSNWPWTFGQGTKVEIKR shows IC50 equal to 6.8

The binder listed as TL1A-0264 (antibody, human IgG1, kappa, V domains shown, human IgG1 effector-function-minimized/kappa) VH: QVQLVQSGAEVKKPGASVKVSCKASGYDYTYYGISWVRQAPGQGLEWMGWISTYNTVTHYAPSLQGRVTMTTDTSTSTAYMELRSLRSDDTAVYYCARESYYGSGAFRGGMDVWGQGTTVTVSS VL: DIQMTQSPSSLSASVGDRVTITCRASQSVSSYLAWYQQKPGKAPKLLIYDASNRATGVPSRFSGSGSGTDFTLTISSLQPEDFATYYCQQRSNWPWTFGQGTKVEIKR shows IC50 equal to 15.8

The binder listed as TL1A-0265 (antibody, human IgG1, kappa, V domains shown, human IgG1 effector-function-minimized/kappa) VH: QVQLVQSGAEVKKPGASVKVSCKASGYDYTYYGISWVRQAPGQGLEWMGWISTYNTVTHYAPSLQGRVTMTTDTSTSTAYMELRSLRSDDTAVYYCARESYYGSGAHRGGMDVWGQGTTVTVSS VL: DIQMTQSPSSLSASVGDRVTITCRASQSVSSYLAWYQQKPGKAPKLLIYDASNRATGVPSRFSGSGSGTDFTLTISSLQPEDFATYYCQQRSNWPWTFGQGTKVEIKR shows IC50 equal to 8.7

Now look at this entry.
The binder listed as TL1A-0287 (antibody, human IgG1, kappa, V domains shown, human IgG1 effector-function-minimized/kappa) VH: QVQLVQSGAEVKKPGASVKVSCKASGYDFTYYGVSWVRQAPGQGLEWMGWISTYNDNTHYAQKLQGRVTMTTDTSTSTAYMELRSLRSDDTAVYYCARESYYGSGAHRGGMDVWGQGTTVTVSS VL: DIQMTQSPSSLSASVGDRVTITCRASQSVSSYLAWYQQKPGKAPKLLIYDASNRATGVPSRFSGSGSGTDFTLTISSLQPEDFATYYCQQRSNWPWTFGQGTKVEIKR shows IC50 equal to 10.1
